Below: a set of entries, each annotated with reported EC50.
system: C2C12; assay: Increase in glucose uptake in mouse C2C12 cells incubated for 18 hrs using [3H]-2-deoxy-D-glucose by liquid scintillation counting; type: functional, cell-based; conditions: Mus musculus, C2C12; read-out: EC50
test-readout: EC50 (µM)

>>> observed_result("O=c1c(O[C@@H]2O[C@H](CO)[C@H](O)[C@H](O)[C@H]2O)c(-c2ccc(O)c(O)c2)oc2cc(O)cc(O)c12 [HYPEROSIDE]")
60.5
>>> observed_result("O=C1C[C@H](O[C@@H]2O[C@H](CO)[C@@H](O)[C@H](O)[C@H]2O)CO1 [GOODYEROSIDE]")
25.6
>>> observed_result("COC(=O)C1=CO[C@@H](O[C@H]2O[C@H](CO)[C@@H](O)[C@H](O)[C@H]2O)[C@@H]2[C@H](C)O[C@@H](OC)C[C@H]12")
25.9
>>> observed_result("O=C(/C=C/c1ccc(O)c(O)c1)OC[C@H]1O[C@@H](Oc2c(-c3ccc(O)cc3)oc3cc(O)cc(O)c3c2=O)[C@H](O)[C@@H](O)[C@@H]1O")
13.8
>>> observed_result("COc1cc(-c2oc3cc(O)cc(O)c3c(=O)c2O[C@@H]2O[C@H](CO)[C@@H](O)[C@H](O)[C@H]2O)ccc1O")
18.5

====

Below: a set of entries, each annotated with reported pIC50.
target: Glucose-6-phosphatase catalytic subunit 1 (Rattus norvegicus); test: Inhibition of glucose-6-phosphatase enzymatic activity in rat […] cells using G6P substrate incubated for 18 hrs by colorimetric assay
Sequence (P43428 whole entry): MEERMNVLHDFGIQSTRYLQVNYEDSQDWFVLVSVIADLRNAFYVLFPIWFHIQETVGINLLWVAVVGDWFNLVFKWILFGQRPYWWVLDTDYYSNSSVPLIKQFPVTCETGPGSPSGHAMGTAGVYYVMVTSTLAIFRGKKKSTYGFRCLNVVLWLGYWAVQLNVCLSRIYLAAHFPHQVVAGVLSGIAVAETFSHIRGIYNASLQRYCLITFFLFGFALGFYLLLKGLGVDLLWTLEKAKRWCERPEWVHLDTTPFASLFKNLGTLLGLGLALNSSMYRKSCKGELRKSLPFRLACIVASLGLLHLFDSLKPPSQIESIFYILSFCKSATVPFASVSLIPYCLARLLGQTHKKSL
pIC50: −log10 of the molar value.
test-readout: pIC50

>>> observed_result("O=C1C[C@H](O[C@@H]2O[C@H](CO)[C@@H](O)[C@H](O)[C@H]2O)CO1 [GOODYEROSIDE]")
3.41
>>> observed_result("O=C(/C=C/c1ccc(O)c(O)c1)OC[C@H]1O[C@@H](O[C@@H]2COC(=O)C2)[C@H](O)[C@@H](O)[C@@H]1O")
4.86
